Provide the recorded Kd for the entries that follow.
# Target Or System: T1, S100B (human, UniProt P04271 1-92)
# T1 chain: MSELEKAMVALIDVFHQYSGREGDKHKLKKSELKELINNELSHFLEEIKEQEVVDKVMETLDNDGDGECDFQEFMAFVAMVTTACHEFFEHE
# Experimental Protocol: FP; competitive

# Binder, Kd
data = [
    ("NQVRPKLPLLKILHAAGAQ [MDM4 (25-43) peptide]", "150 nM"),
    ("TRTKIDWNKILS [CapZ (265-276) peptide]", "1800 nM"),
]

Query string: In one line, give reported Kd of the entry VLQTWLQDLLRRGLVRAAQ [TRPM4 (129-147) peptide] .
Result string: > 200000 nM
